molecular target: Albumin (Bos taurus, UniProt P02769); assay: Glycation-induced fluorescence changes of bovine serum albumin when exposed to fructose (2.5 mM); p<0.001; assay type: functional; conditions: cattle
Sequence (P02769 whole entry): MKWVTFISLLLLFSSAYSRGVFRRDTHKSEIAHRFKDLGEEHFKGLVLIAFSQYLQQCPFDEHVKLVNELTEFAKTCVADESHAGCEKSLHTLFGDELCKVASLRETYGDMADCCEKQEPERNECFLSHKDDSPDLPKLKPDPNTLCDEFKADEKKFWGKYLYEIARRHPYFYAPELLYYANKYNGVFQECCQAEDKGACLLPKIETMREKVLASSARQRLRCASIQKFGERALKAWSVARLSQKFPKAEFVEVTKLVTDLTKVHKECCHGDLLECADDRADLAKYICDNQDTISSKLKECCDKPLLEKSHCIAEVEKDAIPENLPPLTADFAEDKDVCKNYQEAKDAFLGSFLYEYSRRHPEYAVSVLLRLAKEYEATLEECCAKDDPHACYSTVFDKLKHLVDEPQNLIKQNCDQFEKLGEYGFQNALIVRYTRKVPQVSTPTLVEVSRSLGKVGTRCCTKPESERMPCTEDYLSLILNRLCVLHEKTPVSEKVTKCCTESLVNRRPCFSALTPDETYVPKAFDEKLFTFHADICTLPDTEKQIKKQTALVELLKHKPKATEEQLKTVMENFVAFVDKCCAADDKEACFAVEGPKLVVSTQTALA
readoutName: Relative florescence

samplesmiles=COc1ccc(C(=O)c2cc(C(=O)c3ccc(OC)cc3)n(CC(=O)O)c2)cc1 system="Albumin (Bos taurus, UniProt P02769)" readoutname="Relative florescence" recordedvalue=11.8
samplesmiles=O=C(O)Cn1ccc(C(=O)c2ccc(-n3cccc3)cc2)c1 system="Albumin (Bos taurus, UniProt P02769)" readoutname="Relative florescence" recordedvalue=9.8
samplesmiles=COc1ccc(C(=O)c2cc(C(=O)c3ccccc3)n(CC(=O)O)c2)cc1 system="Albumin (Bos taurus, UniProt P02769)" readoutname="Relative florescence" recordedvalue=11.5
samplesmiles=O=C(O)Cn1ccc(C(=O)c2ccn(-c3ccccc3)c2)c1 system="Albumin (Bos taurus, UniProt P02769)" readoutname="Relative florescence" recordedvalue=21
